Origin of the recorded values: ChEMBL document CHEMBL2218924

# assay_system: Serine/threonine-protein kinase PLK3 (Homo sapiens)
# condition_parameters: at 1 µM
# Description: Millipore: Percentage of residual kinase activity of PLK3 at 1uM relative to control. Control inhibitor: Wortmannin at 100.0uM. Buffer: 8 mM MOPS pH 7.0, 0.2 mM EDTA
// reported residual activity for each item listed
Write the number in % without appending the unit.

Recorded results for 5 compounds are shown here.
# structure_as_smiles, residual activity [%]
rows = [
    ("COc1cc2ncnc(Nc3ccc(NC(=O)c4ccccc4)cc3)c2cc1OC", 102),
    ("Oc1n[nH]c2nnc(-c3c(-c4ccccc4)nn4ccccc34)cc12", 96),
    ("Nc1n[nH]c2nnc(-c3c(-c4ccccc4)nn4ccccc34)cc12", 97),
    ("NC(=O)c1ccc2[nH]c(-c3ccc(Oc4ccc(Cl)cc4)cc3)nc2c1", 97),
    ("Cc1ccc(NC2=CC(=O)c3sc(C)nc3C2=O)cc1", 97),
]

Ask | Item CC(C)n1cnc2/c(=N/c3cccc(Cl)c3)nc(NCCO)[nH]c21 : provide residual activity
Reply | 93

Ask | Look up residual activity of O=C1c2ccccc2-[n+]2ccc3c([nH]c4ccccc43)c21 and report it.
Reply | 98

Ask | Write down residual activity measured for item CCN(CC)CCCCN1c2ccccc2Oc2ccc(Cl)cc21
Reply | 101

Ask | Retrieve residual activity measured for O=c1c2ccccc2[nH]c(=S)n1CCN1CCC(=C(c2ccc(F)cc2)c2ccc(F)cc2)CC1 and print it.
Reply | 98

Ask | State its residual activity: O=C1NC(=O)c2c1c1c3ccccc3[nH]c1c1[nH]c3cc(Br)ccc3c21
Reply | 96

Ask | // fetch residual activity given entry O=c1cc(-c2cccc3c2Sc2ccccc2S3)oc(N2CCOCC2)c1
Reply | 107

Ask | Answer with the recorded residual activity of O=C(Nc1cccc(Nc2nccc(Nc3cccc(C(F)(F)F)c3)n2)c1)C1CC1 only.
Reply | 73

Ask | Complete the entry with residual activity for CC[n+]1c(/C=C/N(C)c2ccccc2)n(-c2ccccc2)c2ccc(-c3nc4ccccc4s3)cc21
Reply | 99

Ask | Specify residual activity for CCN(CC)C(=O)c1ccc(Nc2nc(OCC3CCCCC3)c3nc[nH]c3n2)cc1 and stop.
Reply | 101

Ask | Please give the documented residual activity of COc1ccc(CNc2nc(N(CCO)CCO)nc3c2ncn3C(C)C)cc1
Reply | 97

Ask | In one line, give reported residual activity of the entry Cc1cncc2cccc(S(=O)(=O)N3CCCN(C(=O)CN)C[C@H]3C)c12 .
Reply | 98

Ask | Quick one: give measured residual activity for COc1cccc(-c2cc(=O)c3ccccc3o2)c1N
Reply | 111

###

# assay_system: Ribosomal protein S6 kinase alpha-6 (Homo sapiens) (UniProt Q9UK32)
# Sequence (Q9UK32 whole entry): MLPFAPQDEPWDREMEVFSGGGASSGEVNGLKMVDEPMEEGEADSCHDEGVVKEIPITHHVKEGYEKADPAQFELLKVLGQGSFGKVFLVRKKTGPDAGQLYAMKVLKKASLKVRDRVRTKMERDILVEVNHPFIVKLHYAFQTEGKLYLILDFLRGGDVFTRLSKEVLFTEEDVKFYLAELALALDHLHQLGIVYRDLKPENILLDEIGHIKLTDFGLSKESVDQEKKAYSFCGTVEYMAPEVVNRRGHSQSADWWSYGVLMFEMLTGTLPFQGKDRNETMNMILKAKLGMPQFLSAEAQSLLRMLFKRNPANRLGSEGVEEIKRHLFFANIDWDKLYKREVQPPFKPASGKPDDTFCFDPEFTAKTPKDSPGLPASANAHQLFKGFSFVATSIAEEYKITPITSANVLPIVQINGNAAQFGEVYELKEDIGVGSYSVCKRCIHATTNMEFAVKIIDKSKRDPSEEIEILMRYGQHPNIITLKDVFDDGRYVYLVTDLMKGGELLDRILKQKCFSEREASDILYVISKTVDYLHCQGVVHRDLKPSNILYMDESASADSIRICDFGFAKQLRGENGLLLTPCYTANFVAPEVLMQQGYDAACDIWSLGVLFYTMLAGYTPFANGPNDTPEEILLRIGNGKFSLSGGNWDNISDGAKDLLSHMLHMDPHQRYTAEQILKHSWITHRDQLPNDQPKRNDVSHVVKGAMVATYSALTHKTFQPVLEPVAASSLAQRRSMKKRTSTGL
# condition_parameters: at 10 µM
Each entry below carries its recorded residual activity.
Express your answer in %, writing the number without its unit.

These recorded examples may help you get a feel for the data.
# structure_as_smiles, residual activity [%]
records = [
    ("Cc1cc2ncc(-c3ccccc3)nc2cc1C", 100),
    ("CC(=O)O/N=C1\\C(=C2\\C(=O)Nc3cc(Br)ccc32)Nc2ccccc21", 89),
]

Ask | Output residual activity of O=C(O)c1ccc2c3c1cccc3c(=O)n1c3ccccc3nc21
Reply | 73

###

# residual activity per record follows
# assay_system: LIM domain kinase 1 (Homo sapiens)
# condition_parameters: at 1 µM
Report only the number, with the unit % understood.

# structure_as_smiles, residual activity [%]
rows = [
    ("CN(C)c1ccc(/C=C2\\C(=O)Nc3ccccc32)cc1", 108),
]

Ask | Using the record for COc1cc2ncnc(Nc3ccc(Oc4ccccc4)cc3)c2cc1OC , state its measured residual activity.
Reply | 78

Ask | For NC(=O)c1ccc2[nH]c(-c3ccc(Oc4ccc(Cl)cc4)cc3)nc2c1 , write its residual activity.
Reply | 93
